Source of measurements: patent US20240376073A1

Listing of recorded IC90 by entry.
test system: Acinetobacter baumannii ATCC17961; experiment: Antimicrobial susceptibility testing: 90% growth inhibitory concentration (IC90) determination; assay type: cell-based; conditions: Acinetobacter baumannii ATCC17961; Iso-Sensitest broth; growth by OD 600 nm over 16 h; 35±2° C.; read-out: ATCC 17961 IC90
Structures can show the parent of a compound that is named as a salt.
Result type: IC90 (nM)

| Compound | Assay target | Result number |
| --- | --- | --- |
| COc1ccc(-c2cnc(C(=O)Nc3ccc(C(=O)N[C@H]4[C@@H]5CN(C(=O)[C@@H]6C[C@@H](O)C[N+]6(C)C)C[C@@H]54)c(Cl)c3)n2C)c(F)c1F | Acinetobacter baumannii ATCC17961 | 350 |
| COc1ccc(-c2cnc(C(=O)Nc3ccc(C(=O)N4CCN(C(=O)C5CC[N+](C)(CC(N)=O)CC5)CC4)c(Cl)c3)n2C)c(Cl)c1F (stereo not drawn) | Acinetobacter baumannii ATCC17961 | 57 |
| COc1ccc(-c2cnc(C(=O)Nc3ccc(C(=O)N4CCN(CC[N+](C)(C)CC(N)=O)CC4)c(Cl)c3)n2C)c(F)c1F [Example A4, formate] | Acinetobacter baumannii ATCC17961 | 210 |
| COc1ccc(-c2cnc(C(=O)Nc3ccc(C(=O)NC4CN(C(=O)C[N+](C)(C)CC(N)=O)C4)c(Cl)c3)n2C)c(F)c1F | Acinetobacter baumannii ATCC17961 | 290 |
| COc1ccc(-c2cnc(C(=O)Nc3ccc(C(=O)N[C@H]4C[C@@H](NC(=O)C[N+](C)(C)C)C4)c(Cl)c3)n2C)c(F)c1F [Example A10, formate] | Acinetobacter baumannii ATCC17961 | 84 |
| COc1ccc(-c2cnc(C(=O)Nc3ccc(C(=O)N4CCN(C(=O)C[N+]5(C)CCC(O)C5)CC4)c(Cl)c3)n2C)c(F)c1F (stereo not drawn) | Acinetobacter baumannii ATCC17961 | 100 |

---

system: Acinetobacter baumannii ATCC17961; assay: Antimicrobial susceptibility testing: 90% growth inhibitory concentration (IC90) determination; type: cell-based; conditions: Acinetobacter baumannii, ATCC17961, 16 h, read-out: ATCC 17961 IC90, Acinetobacter baumannii ATCC17961; Iso-Sensitest broth; growth by OD 600 nm over 16 h; 35±2° C.
Counter-ions that a name gives are not always drawn.

| Compound | Unit info | IC90 |
| --- | --- | --- |
| Cn1c(-c2ccc(OCF)c(F)c2F)cnc1C(=O)Nc1ccc(C(=O)N2CCN(C(=O)[C@@H]3C[C@@H](O)C[N+]3(C)C)CC2)c(Cl)c1 [Example B45, formate] | nM | 93 |
| COc1ccc(-c2cnc(C(=O)Nc3ccc(C(=O)N4CCN(C(=O)C5CC[N+](CCCN)(CC(=O)O)CC5)CC4)c(Cl)c3)n2C)c(F)c1F (stereo not drawn) [Example C32, formate] | nM | 810 |
| COc1ccc(-c2cnc(C(=O)Nc3ccc(C(=O)N4CCN(C(=O)C5CC[N+](CC(=O)O)(CC6CNC6)CC5)CC4)c(Cl)c3)n2C)c(F)c1F (stereo not drawn) [Example C33, formate] | nM | 490 |
| COc1ccc(-c2cnc(C(=O)Nc3ccc(C(=O)N4CCN(C(=O)[C@@H]5[C@@H](O)[C@@H](O)C[N+]5(C)C)CC4)c(Cl)c3)n2C)c(F)c1F [Example B50, formate] | nM | 250 |
| COc1ccc(-c2cnc(C(=O)Nc3ccc(C(=O)N4CCN(C(=O)[C@@H]5[C@@H](O)CC[N+]5(C)C)CC4)c(Cl)c3)n2C)c(F)c1F [Example B36, formate] | nM | 220 |
| COc1ccc(-c2cnc(C(=O)Nc3ccc(C(=O)N4CCN(C(=O)CCC[N+](C)(CCCN)CC(=O)O)CC4)c(Cl)c3)n2C)c(F)c1F (stereo not drawn) [Example C35] | nM | 510 |
| COc1ccc(-c2cnc(C(=O)Nc3ccc(C(=O)N4CCN(C(=O)N5C[C@@H]6C[N+](CCCN)(CC(=O)O)C[C@@H]6C5)CC4)c(Cl)c3)n2C)c(F)c1F (stereo partly drawn) [Example C37, hydrochloride] | nM | 340 |
| Cn1c(-c2ccc(OCF)c(F)c2Cl)cnc1C(=O)Nc1ccc(C(=O)N2CCN(C(=O)C3CC[N+](CC(=O)O)(CC4CNC4)CC3)CC2)c(Cl)c1 (stereo not drawn) [Example C41, formate] | nM | 480 |
| COc1ccc(-c2cnc(C(=O)Nc3ccc(C(=O)N4CCN(C(=O)[C@@H]5C[C@@H](O)C[N+]5(C)C)CC4)c(Cl)c3)n2C)c(F)c1C(F)(F)F [Example B52, formate] | nM | 520 |
